Data provenance is patent US20250027068.

- assayed-system: pooled human IgG
Each record here notes measured Enzyme Activity Endpoint Assay: scIgG.
Note: unit ng/µL is implicit; provide only the numeric part.

Q: Dear colleague, I am looking for the recorded Enzyme Activity Endpoint Assay: scIgG of the following protein: PRT-47 (protein) MANQEIRYSEVTPYHVTSVWTKGVTPPANFTQGEDVFHAPYVANQGWYDINKTFNGGDDLLCGAATAGNMLHWWFDQNKDQIDRYLKEHPEKAKINFNGEQMFDVKEAIDTKNDQTNSKLFEYFKEKAFPYLSTKHLGVFPDLVLDMFINGYRLSLTNHGPTPVKEGSKDPRGGFFDAVFTRGDQSKLLTSRHDFKEKNLKEISDLIKKELTEGKALGLSHTYANVRINHVINLWGADFDSNGNLKAIYVTDSDSNASVGMKKYFVGVNSAGKVAISAKEIKEDNIGAQVLGLFTLSTGQDSWNQTN
Result: 0

Q: Endpoint output: Enzyme Activity Endpoint Assay: scIgG of PRT-14 (protein) MANQEIRYSEVTPYTVTSVWTKGVTPPADFTQGEDVFHAPYIANQGWYDITKTFNGKDDLLCGAATAGNMLHWWFDQNKEQIERYLKKHPEKQKINFNGEQMFDVKEAIDTKDSQTDSELFEYFKEKAFPYLSTKHLGVFPDHVLDMFINGYRLSLTNHGPTPVKEGSKDPRGGIFDAVFTRGDQSKLLTNRHDFKEKTLSEISDLIKKELTEGKALGLSHTYANVRINHVINLWGADFDSEGNLEAIYVTDSDSNASIGMKKYFVGVNSAGKVAISAKEIKEDNIGAQVLGLFTLSTGQDIWNQTN . Value?
Result: 43

Q: Could you share which Enzyme Activity Endpoint Assay: scIgG value was measured for PRT-592 (protein) MANQEIRYSEETPSTITSVWTKGVTPPTDFIQNEDVLHAPYIANQGWYDITKTFNGKDDLLCGAATAGNMLHWWFDQNKEQIENYLKKHPEKQKINFNGEQMFDVKEAIDTKNSQTDSALFEYFKDKAFPYLSTKHLGVFPDHVIDMFINGYRLSLTNHGPTPVKRGTKDPRGGIFDAVFTRGDQSKLLTSRHDFKEKTLNEISDLIKQELTEGKALGLSHTYANVRINHVINLWGADFNAEGNLEAIYVTDSDSNASIGMKKYYVGVNSAGKVAISAKEIEGDNIGAQVLGLFTLSTGQDIWNQTNLEHHHHHH ?
Result: 0

Q: Dear colleague, I am looking for the recorded Enzyme Activity Endpoint Assay: scIgG of the following protein: PRT-30 (protein) MANQEIRYSEVTPYHVTSVWTKGVTPPANFTQGEDVFHAPYVANQGWYDITKTFNGKDDLLCGAATAGNMLHWWFDQNKDQIKRYLEEHPEKQKINFNGEQMFDVKEAIDTKNHQLDSKLFEYFKEKAFPYLSTKHLGVFPDHVLDMFINGYRLSLTNHGPTPVKEGSKDPRGGIFDAVFTRGDQSKLLTSRHDFKEKTLKEISDLIKKELTEGKALGLSHTYANVRINHVINLWGADFDSEGNLKAIYVTDSDSNASIGMKKYFVGVNSAGKVAISAKEIKEDNIGAQVLGLFTLSTGQDSWNQTN
Result: 65
